// data source = the Deep4Chem optical property database

Procedure summary: photoluminescence quantum yield (fraction); solvent given as SMILES
Study conditions: in CCO
Readout kind: photoluminescence quantum yield

Some solved entries appear below for comparison.
Molecule	photoluminescence quantum yield
CNc1ccc2nc3cc(Cl)c(Cl)cc3nc2c1	0.06
CCC12C(=C3C(=C4c5ccc(-c6ccc(C)s6)cc5S(=O)(=O)C41CC)C(F)(F)C(F)(F)C3(F)F)c1ccc(-c3ccc(C)s3)cc1S2(=O)=O (stereo not given)	0.62
Cc1cc2c(o1)=CC1=C(C(F)(F)F)c3cc4oc(C)cc4n3[B-](F)(F)[N+]=21	0.87
CC(=O)c1ccc2ccc3c(NCCC(=O)NCCCCCCc4nc5c(=O)[nH]c(N)nc5n4[C@H]4C[C@H](O)[C@@H](CO)O4)ccc4ccc1c2c43	0.49

P: Cc1ccc(C2=C3C=C(I)C(I)=[N+]3[B-](F)(F)n3c2cc(I)c3I)cc1
Q: COCc1ncc(-c2c3ccccc3c(-c3cnc(COC)nc3)c3ccccc23)cn1
R: COc1ccc2c(-c3nc(-c4ccccc4F)no3)cc(=O)oc2c1
Q) Hey, quick one: sort these by photoluminescence quantum yield, low to high? Ranked list of labels, please, in the requested order.
A) P, R, Q

P: N#Cc1ccc(-c2ccc(C3=CCCCC3)s2)s1
Q: COc1ccc(C#Cc2ccc(C#Cc3ccc(P(=O)(c4ccc(C#Cc5ccc(C#Cc6ccc(OC)cc6)cc5)cc4)c4ccc(C#Cc5ccc(C#Cc6ccc(OC)cc6)cc5)cc4)cc3)cc2)cc1
Q) Sorting by photoluminescence quantum yield in descending order, would P or Q appear first? Bench note: the answer is the label of the chosen record.
A) Q
(Q: 0.86, P: 0.06)

1: CC/[NH+]=c1\cc2oc3cc(NCCC(=O)NCCCCC(NC(C)=O)C(=O)OC)c4ccccc4c3nc-2cc1C (stereo not given)
2: CC[N+](CC)=c1ccc2nc3c(cc(NCCC(=O)NC(C)C(=O)OC)c4ccccc43)oc-2c1 (stereo not given)
3: c1ccc(N(c2ccccc2)c2ccccc2)cc1
4: COc1ccc2c(-c3nc(-c4cccc(C)c4)no3)cc(=O)oc2c1
5: COc1cc(OC)c2c(c1)C(=O)c1ccccc1-2
Q) Please list the entries, largest photoluminescence quantum yield first. Ranked list of labels, please, in the requested order.
A) 4, 1, 2, 3, 5
(4: 0.52, 1: 0.32, 2: 0.18, 3: 0.03, 5: 0)

P: Cc1oc(-c2ccccc2)nc1C(=O)O
Q: CCCCCCCN1C(=CC2=C([O-])C(=CC3=[N+](CCCCCCC)c4ccccc4C3(C)C)C2=C(C#N)C#N)Sc2ccccc21
R: N#CC(C#N)=Cc1ccc(-c2cccc(-c3nc4ccccc4s3)c2O)s1
S: O=c1c2cc(F)c(O)cc2oc2cc(O)c(F)cc12
Q) Please list the entries, largest photoluminescence quantum yield first. Ranked list of labels, please, in the requested order.
A) P, S, Q, R
(P: 0.52, S: 0.26, Q: 0.15, R: 0.0956)
